- Study Target: islet amyloid polypeptide (IAPP) (Homo sapiens)
- Construct: IAPP is a 37 residue neuropancreatic hormone peptide; purchased Anaspec (Fremont, Calif.)
- Sequence (P10997 34-70 limits assumed): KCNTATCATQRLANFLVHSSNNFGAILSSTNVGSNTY
- Procedure Text: ThT-based kinetic assay of IAPP fibrillation
- Type: biochemical
- Stated Conditions: lipid catalyzed (750 μM LUVs, DOPG:DOPC 3:7), 15 μM IAPP, equimolar ratio
Measurement Kind: relative t50 of IAPP fibrillation versus control reaction (fold)

Some solved entries appear below for comparison.
{"columns": ["Compound", "Observed Value"],
 "data": [
  ["COC(=O)c1ccc(NC(=O)c2ccc(NC(=O)c3ccc([N+](=O)[O-])c(OCC(=O)O)n3)c(OCC(C)C)n2)c(OCC(=O)O)n1 [ADM-11, reference compound]", 1.9],
  ["COC(=O)c1ccc(NC(=O)c2ccc(NC(=O)c3ccc([N+](=O)[O-])c(OCC(=O)O)n3)c(OCC(C)C)n2)c(OCC(C)C)n1 [ADH-201, reference compound]", 1.4]
]}

a. CCOC(=O)c1cc(NC(=O)c2cc(NC(=O)c3cc([N+](=O)[O-])cn3CC(C)C)cn2CC(C)C)cn1CC(C)C [ADH-105]
b. CCOC(=O)c1cc(NC(=O)c2cc(NC(=O)c3cc([N+](=O)[O-])cn3CC(C)C)cn2CC(C)C)cn1CCC(=O)O [ADH-101]
Exam item: Hey, between a and b which has a smaller measured relative t50 of IAPP fibrillation versus control reaction? Bench note: the answer is the label of the chosen record.
Marked response: a
(a: 1.5 fold, b: 2.7 fold)
